Quick reference for Kd among some binders
target_or_system: T1, biotinylated human VWF cysteine knot (CK) domain construct (human, UniProt P04275 2724-2813, biotinylated in vitro (BirA) on the biotinylation tag; one N-glycan)
T1 construct: Expressed in HEK293 EBNA cells; disulfide-linked homodimer; also called human VWF CK; human VWF CK domain; not shown: in vitro biotinylation tag, HRV-3C site and 3 VWF residues before the CK domain
assay_details: SPR, scFv captured via anti-SV5, CK domain injected, pH 7.4, apparent Kd;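 further: scFvs from crude yeast supernatants printed on an amine-coupled anti-SV5 lawn, Kd computed as koff over kon, likely overestimating affinity because the CK construct is dimeric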
Number in nM, nothing else.

Illustrative cases are given below, each with its answer.
{"binder": "27_Lib4_scFv (scFv, VH-linker-VL; not shown: C-terminal 3xFLAG and SV5 tags) scFv: QVQLQESGPGLVKPSQTLSLTCTVSGASFGDHYWSWIRQPPGKGLEWIGYIDATGSIDYNPSLKSRVTMSVDTSKNQFSLKVNSVTAADTAVYYCARVASYYYYMDVWGKGTTVTVSSSGGSTITSYNVYYTKLSSSGTEIVMTQSPATLSLSPGERATLSCRASQSITGSYLAWYQQKPGQAPRLLIYGASDRAPGIPARFSGSGSGTDFTLTISSLEPEDFAVYYCQQYGSFPYTFGGGTKVEIK", "observed": 2.85}
{"binder": "8226_Lib8_scFv (scFv, VH-linker-VL; not shown: C-terminal 3xFLAG and SV5 tags) scFv: EVQLVESGGGLVQPGRSLRLSCAASGFNFHNYDMHWVRQAPGKGLEWVSAISGGAVSTDYADSVEGRFTISRDNAKNSLYLQMNSLRAEDTAVYYCARSSWYGGQIDFWGQGTLVTVSSSGGSTITSYNVYYTKLSSSGTDIQMTQSPSSLSASVGDRVTITCRASQDISGWLAWYQQKPGKAPKLLIYAASSLQDGVPSRFSGSGSGTDFTLTISSLQPEDVATYYCQQSYRIPSTFGGGTKVEIK", "observed": 3.17}

Now for the binder whose Kd we want.
What the record says about Lib1_P1_A1_scFv (scFv, VH-linker-VL; not shown: C-terminal 3xFLAG and SV5 tags) scFv: QVQLVQSGAEVKKPGASVKVSCKVSGDTLSNYAIHWVRQAPGKGLEWMGGINPNAGTTIYAQKFQGRVTMTEDTSTDTAYMELSSLKSEDTAVYYCARDSSSWSQFGYYYYYMDVWGKGTTVTVSSSGGSTITSYNVYYTKLSSSGTDIQMTQSPSSVSASVGDRVTITCRASQSIGDFLAWYQQKPGKAPKLLIYDASHLQTGVPSRFSGSGSGTDFTLTISSLQPEDFANYYCQQTSTIPPTFGGGTKVEIK : Kd is 1.38
